- measurement-target: EPHB2 (UniProt P29323)
- Sequence (P29323 whole entry, looked up): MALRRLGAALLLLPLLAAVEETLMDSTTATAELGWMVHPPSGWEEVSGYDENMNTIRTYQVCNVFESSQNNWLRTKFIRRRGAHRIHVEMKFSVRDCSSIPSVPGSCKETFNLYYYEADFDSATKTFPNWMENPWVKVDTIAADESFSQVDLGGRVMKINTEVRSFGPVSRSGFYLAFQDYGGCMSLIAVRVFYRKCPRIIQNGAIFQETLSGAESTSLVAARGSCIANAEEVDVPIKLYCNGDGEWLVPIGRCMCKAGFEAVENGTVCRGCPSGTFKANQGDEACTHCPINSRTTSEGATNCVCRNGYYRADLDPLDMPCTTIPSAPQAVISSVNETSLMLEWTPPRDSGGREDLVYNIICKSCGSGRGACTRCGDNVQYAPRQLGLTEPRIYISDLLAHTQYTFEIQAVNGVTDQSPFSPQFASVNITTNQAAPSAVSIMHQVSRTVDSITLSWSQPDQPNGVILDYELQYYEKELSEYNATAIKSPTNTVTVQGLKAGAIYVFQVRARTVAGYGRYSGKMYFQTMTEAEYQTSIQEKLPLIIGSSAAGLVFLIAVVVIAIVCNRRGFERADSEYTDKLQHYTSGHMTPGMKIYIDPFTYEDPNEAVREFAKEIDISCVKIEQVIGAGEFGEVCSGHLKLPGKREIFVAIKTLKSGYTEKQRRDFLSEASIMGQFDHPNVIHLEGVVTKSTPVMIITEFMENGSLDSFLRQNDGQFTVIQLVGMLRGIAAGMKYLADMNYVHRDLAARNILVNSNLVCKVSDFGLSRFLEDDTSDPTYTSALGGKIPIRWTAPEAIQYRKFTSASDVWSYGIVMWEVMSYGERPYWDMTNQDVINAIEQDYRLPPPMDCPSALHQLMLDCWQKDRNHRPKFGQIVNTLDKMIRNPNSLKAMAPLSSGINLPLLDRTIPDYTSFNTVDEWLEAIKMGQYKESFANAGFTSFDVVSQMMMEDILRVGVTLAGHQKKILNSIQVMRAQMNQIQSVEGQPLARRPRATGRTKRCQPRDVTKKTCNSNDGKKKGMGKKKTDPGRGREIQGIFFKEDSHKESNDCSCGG
- test-description: phosphorylation enrichment, bacterial display (enrichment ratio); higher = better substrate or ligand; peptides without Tyr show the background
Output 1 for phosphorylation enrichment not less than 0.5; output -1 otherwise.

Examples from the recorded data:
YKPGFYNLKEK [LAMA1_Y490_C485Y] : -1
SIKDKYVTAFY [KCNH2_Y611_L615F] : -1
GGMTEYELVVV [KRAS_Y4_K5E] : 1
LWPIWYRCHRP [MRGPRX1_Y130] : 1
DNQFAYLKAII [HNF4A_Y288_E285Q_YF] : 1
SIIKDSFHRGA [GATM_Y203_Y203S] : -1
EEGNPYFSGAR [MCCC2_Y520_S523G_YF] : -1

// switching to the query sequence
Say whether TEAGDYKLCFD [TMED1_Y103] shows phosphorylation enrichment of 0.5 or more.
1

###

phosphorylation enrichment: recorded values
- Tested on: Fer (mouse)
- test-description: phosphorylation enrichment, bacterial display (enrichment ratio); higher = better substrate or ligand; peptides without Tyr show the background

phosphorylation enrichment of SSEFHYVGGFF [CTSC_Y347_YF] on Fer (mouse)?
0.558

I'm curious: which phosphorylation enrichment was measured for KKLAEYGPQGR [CLCA1_Y147] tested on Fer (mouse)?
0.316

Hi! What's the reported phosphorylation enrichment for GRRGQYVMPSE [TTC7A_Y396_L399P] on Fer (mouse)?
0.39

Hello, I am looking for reported phosphorylation enrichment with Fer (mouse) for LLREWYLPDPY [SIX3_Y225_Q227P] . Could you help?
0.409

###

- System: Fer (mouse)
- test-description: phosphorylation enrichment, bacterial display (enrichment ratio); higher = better substrate or ligand; peptides without Tyr show the background
Known phosphorylation enrichment of a selection of sequences
Just the number, please.

SVIKEYQIRQV [USH2A_Y3623_G3618S] : 0.415
YDEYRYRSVIK [CFTR_Y517] : 0.529
CTTIHYTYMCN [TP53_Y234_N235T] : 0.591
GTPVMYTYDEY [COL10A1_Y623] : 0.575
KDGSGYISAAE [CALM1_Y100_N98S] : 0.369

Form: Entry = PKEQRYSFLQN [GH1_Y68_K67R] | System = Fer (mouse) | phosphorylation enrichment = ____
0.902

Observed phosphorylation enrichment on Fer (mouse) for VDEVLYEDSSA [MTHFS_Y197_T202A] , please.
2.08

Request - read-out phosphorylation enrichment | tested on Fer (mouse) | sequence DVFLKYLNFAT [PDE6B_Y212]
0.509

Give phosphorylation enrichment (Fer (mouse)) of the following sequence: ATAKGYEPDAS [OTC_Y223_P220A]
0.473

Notebook: pull reported phosphorylation enrichment for Fer (mouse), entry LIGRRYDDPEV [HSPA9_Y128]
0.809

I'm curious: which phosphorylation enrichment was measured for MARDIYRASFF [ALK_Y1278_YF] tested on Fer (mouse)?
0.375

Short answer please: phosphorylation enrichment, Fer (mouse), entry RGDIFYTSKLW [AKR1C3_Y81_E77G]
0.648

Test system Fer (mouse); read-out phosphorylation enrichment; what value for GHEYIYVDRMQ [PDGFRB_Y581_P584R] ?
0.472

Form: Entry = QSHKVYVQHLL [POR_Y604] | System = Fer (mouse) | phosphorylation enrichment = ____
0.742

Please provide the recorded phosphorylation enrichment for DGLALYTGSAL [COL6A3_Y524_S521L] , tested on Fer (mouse).
0.758

###

- measurement-target: Grb2 SH2 (UniProt P62993)
- Sequence (P62993 whole entry, looked up): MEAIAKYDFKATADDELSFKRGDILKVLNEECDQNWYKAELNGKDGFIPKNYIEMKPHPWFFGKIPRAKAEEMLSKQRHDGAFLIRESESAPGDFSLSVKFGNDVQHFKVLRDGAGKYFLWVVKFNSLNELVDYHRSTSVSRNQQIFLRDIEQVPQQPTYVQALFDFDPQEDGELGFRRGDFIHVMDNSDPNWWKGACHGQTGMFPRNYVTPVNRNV
- test-description: SH2 binding enrichment of the phosphorylated peptide, bacterial display (enrichment ratio); higher = better substrate or ligand; peptides without Tyr show the background
Assign YES whenever SH2 binding enrichment does not fall below 0.9; assign NO whenever it does.

# count of solved cases: 2
LSSEMCVKSFT [F5_Y2149_Y2149C_YF] : YES
RDSQLYAVDFE [MRPS34_Y34_YF] : YES

Has KRIETYFSKNF [PLP1_Y50_L46R_YF] a recorded SH2 binding enrichment greater than or equal to 0.9?
YES

# check: SH2 binding enrichment of ASKEPYYVRCI [MYO1D_Y585] is greater than or equal to 0.9
NO

Given HLVSEYQQFQD [TUBB3_Y422_D417H_YF] , state whether its SH2 binding enrichment is at least 0.9.
NO

Is reported SH2 binding enrichment greater than or equal to 0.9 here: HGDSAYHSQRH [ERBB3_Y1132_R1127H]
YES

###

- measurement-target: SHP2-C SH2
- test-description: SH2 binding enrichment of the phosphorylated peptide, bacterial display (enrichment ratio); higher = better substrate or ligand; peptides without Tyr show the background
Respond with satisfied for SH2 binding enrichment values of 0.6 and above, not satisfied for values below.

Some solved entries appear below for comparison.
IFLADYRIMEG [ALOX12B_Y318_YF] : satisfied
PDKRIYQFTAA [SKAP2_Y197] : not satisfied
CPEARYNRSPI [PTAR1_Y42] : not satisfied
SREALYNEMDP [CACNA1A_Y794] : not satisfied
EKLQKYFRQNP [EHHADH_Y682_YF] : satisfied

Please indicate if the recorded SH2 binding enrichment for WPLKWYVPECI [ZAP70_Y506_A507V] meets or exceeds 0.6.
not satisfied

Check the entry LIGRRYDDPEV [HSPA9_Y128] : does SH2 binding enrichment equal or exceed 0.6?
not satisfied

###

- measurement-target: Fyn (UniProt P06241)
- Sequence (P06241 whole entry, looked up): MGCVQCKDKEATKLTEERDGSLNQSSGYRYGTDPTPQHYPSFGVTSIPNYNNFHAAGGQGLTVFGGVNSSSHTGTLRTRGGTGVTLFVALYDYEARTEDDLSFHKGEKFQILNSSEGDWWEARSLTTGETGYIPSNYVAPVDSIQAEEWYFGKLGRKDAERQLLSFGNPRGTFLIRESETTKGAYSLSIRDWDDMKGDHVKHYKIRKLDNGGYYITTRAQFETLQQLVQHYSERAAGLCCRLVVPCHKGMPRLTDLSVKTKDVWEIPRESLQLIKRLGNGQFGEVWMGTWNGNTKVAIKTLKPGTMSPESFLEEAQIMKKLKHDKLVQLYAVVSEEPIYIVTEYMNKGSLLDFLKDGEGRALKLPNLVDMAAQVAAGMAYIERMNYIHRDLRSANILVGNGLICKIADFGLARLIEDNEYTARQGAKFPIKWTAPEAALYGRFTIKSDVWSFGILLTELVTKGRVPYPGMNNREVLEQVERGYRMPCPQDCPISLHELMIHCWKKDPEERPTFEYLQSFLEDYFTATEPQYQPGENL
- test-description: phosphorylation enrichment, bacterial display (enrichment ratio); higher = better substrate or ligand; peptides without Tyr show the background
quantity-kind: phosphorylation enrichment

Use the examples below as a reference point.
ADKSAYLMGVN [MYH7_Y386_L390V] : 0.405
YASALYRQRRS [FGF11_Y162] : 0.687
FLAVEYHKPHI [IDS_Y225_G224E] : 0.337

Query the reported phosphorylation enrichment for Fyn (UniProt P06241); item: LNAGAYSKVVE [PPT1_Y172_Q177E]
0.306

Form entry - test system: Fyn (UniProt P06241); read-out: phosphorylation enrichment; sequence: LQLLGDRPVFS [CHST6_Y358_Y358D_YF]
0.356

###

- measurement-target: MERTK (UniProt Q12866)
- Sequence (Q12866 whole entry, looked up): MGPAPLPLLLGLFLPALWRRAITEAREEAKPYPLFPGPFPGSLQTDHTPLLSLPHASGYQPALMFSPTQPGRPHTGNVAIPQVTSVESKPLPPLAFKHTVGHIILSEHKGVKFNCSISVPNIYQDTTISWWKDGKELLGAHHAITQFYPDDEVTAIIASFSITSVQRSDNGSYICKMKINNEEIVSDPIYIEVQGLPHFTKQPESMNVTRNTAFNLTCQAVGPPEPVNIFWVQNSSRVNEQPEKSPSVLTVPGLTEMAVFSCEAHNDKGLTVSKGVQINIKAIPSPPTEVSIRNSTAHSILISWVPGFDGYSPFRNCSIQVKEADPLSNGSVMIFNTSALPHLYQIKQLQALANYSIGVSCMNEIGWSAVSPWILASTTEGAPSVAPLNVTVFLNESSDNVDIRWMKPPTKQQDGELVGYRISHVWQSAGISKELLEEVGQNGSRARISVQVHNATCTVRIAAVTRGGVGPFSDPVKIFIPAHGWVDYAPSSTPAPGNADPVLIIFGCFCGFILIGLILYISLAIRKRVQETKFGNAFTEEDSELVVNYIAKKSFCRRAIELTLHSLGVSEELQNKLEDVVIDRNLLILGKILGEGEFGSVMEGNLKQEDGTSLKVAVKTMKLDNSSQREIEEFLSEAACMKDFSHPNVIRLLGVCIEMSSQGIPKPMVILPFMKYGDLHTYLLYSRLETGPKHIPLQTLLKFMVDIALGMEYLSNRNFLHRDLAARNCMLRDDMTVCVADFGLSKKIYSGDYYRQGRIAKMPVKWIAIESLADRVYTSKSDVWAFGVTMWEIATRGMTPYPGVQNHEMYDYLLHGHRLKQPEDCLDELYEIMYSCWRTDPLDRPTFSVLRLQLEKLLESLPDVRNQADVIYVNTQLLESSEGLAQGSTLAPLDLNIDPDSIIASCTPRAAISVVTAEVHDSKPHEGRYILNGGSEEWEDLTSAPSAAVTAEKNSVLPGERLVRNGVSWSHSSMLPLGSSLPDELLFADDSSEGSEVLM
- test-description: phosphorylation enrichment, bacterial display (enrichment ratio); higher = better substrate or ligand; peptides without Tyr show the background
quantity-kind: phosphorylation enrichment
Please give only the number in your answer, with no unit.

May I ask what phosphorylation enrichment has been recorded for FGYPGYQSKHY [TIMP3_Y177] ?
0.435

###

Reported phosphorylation enrichment values are given for each entry in this list.
- measurement-target: EPHB2 (UniProt P29323)
- test-description: phosphorylation enrichment, bacterial display (enrichment ratio); higher = better substrate or ligand; peptides without Tyr show the background

LITTPYIGFLG [KCNQ1_Y267_L266P] : 0.5

Read the next record carefully.
Please look up its phosphorylation enrichment: EKMWSYTKSAE [GRIA3_Y705_M706T]
0.487

###

- measurement-target: Grb2 SH2 (UniProt P62993)
- test-description: SH2 binding enrichment of the phosphorylated peptide, bacterial display (enrichment ratio); higher = better substrate or ligand; peptides without Tyr show the background
In this section, each of the sequences is paired with its reported SH2 binding enrichment.
Reply with just the number.

PESIPYRKFTT [NTRK1_Y701_L700P] : 0.747
YGLQAYTKVKT [ALDH2_Y502_E504K] : 0.811
AKIDGYITSYR : 0.815

# evaluate next
May I ask what SH2 binding enrichment has been recorded for TRSFKYLLLSM [NF1_Y491_YF] ?
1.05

###

- measurement-target: EPHB1 (UniProt P54762)
- Sequence (P54762 whole entry, looked up): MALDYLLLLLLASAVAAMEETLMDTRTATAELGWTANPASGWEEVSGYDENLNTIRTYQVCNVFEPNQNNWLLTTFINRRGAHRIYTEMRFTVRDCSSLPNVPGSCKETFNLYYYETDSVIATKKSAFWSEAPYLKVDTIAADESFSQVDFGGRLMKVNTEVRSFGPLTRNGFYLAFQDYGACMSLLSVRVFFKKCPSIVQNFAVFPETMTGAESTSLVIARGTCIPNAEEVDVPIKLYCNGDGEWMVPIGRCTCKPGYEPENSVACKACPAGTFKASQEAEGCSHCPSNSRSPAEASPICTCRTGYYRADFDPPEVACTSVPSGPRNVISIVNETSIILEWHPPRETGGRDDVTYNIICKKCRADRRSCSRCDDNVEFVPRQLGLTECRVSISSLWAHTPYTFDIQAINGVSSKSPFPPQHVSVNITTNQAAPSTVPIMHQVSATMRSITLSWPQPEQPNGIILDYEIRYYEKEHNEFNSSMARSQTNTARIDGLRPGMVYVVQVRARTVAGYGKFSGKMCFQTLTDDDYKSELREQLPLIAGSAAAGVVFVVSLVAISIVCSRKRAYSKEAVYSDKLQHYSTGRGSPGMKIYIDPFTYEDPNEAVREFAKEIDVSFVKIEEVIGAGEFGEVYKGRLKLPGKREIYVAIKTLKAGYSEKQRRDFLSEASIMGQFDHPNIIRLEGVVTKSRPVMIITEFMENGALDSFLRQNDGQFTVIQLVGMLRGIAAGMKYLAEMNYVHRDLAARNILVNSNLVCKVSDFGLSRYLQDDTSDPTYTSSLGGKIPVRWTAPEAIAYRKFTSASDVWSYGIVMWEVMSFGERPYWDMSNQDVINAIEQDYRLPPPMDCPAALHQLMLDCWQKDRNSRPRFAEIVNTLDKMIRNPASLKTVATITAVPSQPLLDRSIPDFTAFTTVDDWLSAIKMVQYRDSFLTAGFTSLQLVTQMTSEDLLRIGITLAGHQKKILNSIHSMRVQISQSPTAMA
- test-description: phosphorylation enrichment, bacterial display (enrichment ratio); higher = better substrate or ligand; peptides without Tyr show the background
quantity-kind: phosphorylation enrichment
Give only the figure.

Solved entries (count: 8):
SENAFYLSPDI [COL6A3_Y2827] : 0.793
KICDWYQRQRP [KRT14_Y151_R148C] : 0.398
TSFSGYRCHRH [NKAPL_Y94_Y96C_YF] : 0.576
LFDPDYMKVIL [CYP4A22_Y104_YF] : 1.42
GRVLGYGTFGK [FLT4_Y853_A855T] : 0.372
DVELLYPVKEK [EPHX1_Y283] : 0.445
QNTGNYYDLYG [PTPN11_Y62_D61N] : 30.6
SPRDTYSDRSG [CTPS1_Y567] : 0.298

Can you look up the measured phosphorylation enrichment of YDEYRYRSVIK [CFTR_Y517] for me?
0.584

Give the measured phosphorylation enrichment of GMKIVYVFVKK [DNAI2_Y5_E2K_YF] .
0.59

Given the sequence RDSQLYAVDYE [MRPS34_Y34] , what is its reported phosphorylation enrichment?
0.904

Any idea what phosphorylation enrichment was measured for KNRDVSSSDFF [USP24_Y2134_Y2134S_YF] ?
0.444

Need phosphorylation enrichment of RNVLVYDKLNV [ROR2_Y624] , thanks.
1.97

What phosphorylation enrichment value was documented for this sequence, MFQVQYNSSVD [LRFN1_Y458_YF] ?
0.486

Bench note: what phosphorylation enrichment did MDDKEYFSVHN [MET_Y1234_Y1230D_YF] show?
0.492

Item FQRLRYIKQLG [SAMHD1_Y146] has what recorded phosphorylation enrichment?
0.483

// lookup phosphorylation enrichment for LKLIQYHLIQQ [AKAP4_Y554_T557I]
0.95

Need phosphorylation enrichment, item VKMLEYLGKDV [CASP5_Y74]
0.422

Which phosphorylation enrichment is reported for this sequence? EFISENCGEII [EZH2_Y641_Y641N]
0.585

Param item = GHNDVYILEHV [GRIN2A_Y1423_S1425L] ; retrieve measured phosphorylation enrichment.
0.452

Cited source: the supplement of paper PMC10065799
